# assay_method_text: Cytotoxicity against MDCK cells by CCK-8 assay
# Format: toxicity, cell-based, Canis lupus familiaris
# measurement_context: dog
The label is satisfied for CC50 below 70 µM and not satisfied for CC50 equal to or exceeding 70 µM.

# input Record CC(C)(C)c1ccc(C(=O)NC(=S)Nc2cccc(F)c2)cc1 : is its CC50 strictly below 70 µM?
# output satisfied

# input Record CCCc1ccc(C(=O)Nc2ccc(NC(=S)NC(=O)c3ccc(C(C)(C)C)cc3)cc2)cc1 : is its CC50 strictly below 70 µM?
# output not satisfied

# input Record CC(C)(C)c1ccc(C(=O)NC(=S)Nc2ccc(NC(=O)c3ccccc3)cc2)cc1 : is its CC50 strictly below 70 µM?
# output not satisfied

# input Record CC(C)(C)c1ccc(C(=O)NC(=S)Nc2c(Br)cc(Br)cc2Br)cc1 : is its CC50 strictly below 70 µM?
# output satisfied

# input Record CC(C)(C)c1ccc(C(=O)NC(=S)Nn2cnnc2)cc1 : is its CC50 strictly below 70 µM?
# output satisfied

# input Record CC(C)(C)c1ccc(C(=O)NC(=S)Nc2ccc(NC(=O)c3ccc(F)cc3)cc2)cc1 : is its CC50 strictly below 70 µM?
# output not satisfied

# input Record Cc1ccc(NC(=S)NC(=O)c2ccc(C(C)(C)C)cc2)c(Br)c1 : is its CC50 strictly below 70 µM?
# output satisfied

# input Record CC(C)(C)c1ccc(C(=O)NC(=S)Nc2ccc(NC(=O)c3ccc(C(C)(C)C)cc3)cc2)cc1 : is its CC50 strictly below 70 µM?
# output not satisfied

# input Record CC(C)(C)c1ccc(C(=O)N2C(=O)CN(c3ccccc3F)C2=S)cc1 : is its CC50 strictly below 70 µM?
# output satisfied

Reference for the values: ChEMBL document CHEMBL5625209
